B1: VAMP4 (parent)
chain: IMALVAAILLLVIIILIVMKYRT

Variants of: B1
Assay: protein stability index of a GFP-peptide fusion (GPS, HEK-293T) (PSI 1-6); higher = more stable;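 also: lentivirally expressed fusions sorted by FACS into six bins by GFP to DsRed ratio, PSI derived from sequencing read proportions per bin multiplied by bin number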
Settings: c terminus: native
Classification field: enter label 1 for protein stability index values not below 3, label 0 for values below it.

{"columns": ["changes", "classification"],
 "data": [
  ["I17G", "label 0"],
  ["R22H", "label 1"],
  ["I14N", "label 0"],
  ["A6Y", "label 0"],
  ["R22D", "label 1"],
  ["M19F", "label 1"],
  ["V5C", "label 1"],
  ["I14V", "label 1"],
  ["K20S", "label 1"],
  ["L10P", "label 0"],
  ["K20D", "label 1"],
  ["I14A", "label 1"],
  ["V12R", "label 0"],
  ["A6M", "label 1"],
  ["R22F", "label 1"],
  ["A3Q", "label 1"],
  ["V5L", "label 1"],
  ["R22N", "label 1"],
  ["A7S", "label 1"]
]}

Sourced from the supplement of paper PMC10567573
